meta.source: ChEMBL document CHEMBL4028861

Assay: Oral bioavailability in Wistar Han rat administered via gavage by LC-MS/MS analysis
Type: ADME, organism-based
Settings: in vivo
What bioavailability was measured for each of the following?
Supply the numeric figure in %, leaving out any unit text.

// field: bioavailability; key: C[C@H](NC(=O)C(C)(F)F)[C@H](Oc1ccc2c(cnn2-c2cccc(C(=O)NCc3cccnc3)c2)c1)c1ccc2c(c1)OCOC2 ; value = 0.3

// field: bioavailability; key: COc1cccc([C@@H](Oc2ccc3c(cnn3-c3ccc(F)cc3)c2)[C@H](C)NC(=O)C(F)(F)F)c1 [AZD-5423] ; value = 37

// field: bioavailability; key: C[C@H](NC(=O)C(C)(F)F)[C@H](Oc1ccc2c(cnn2-c2ccc(F)cc2)c1)c1ccc2c(c1)OCCO2 ; value = 11

###

Assay: Cmax in Wistar Han rat plasma at 0.1 umol/kg, administered via intratracheal instillation by LC-MS/MS analysis
Type: ADME
Parameters: dose 0.1 umol/kg
Conditions: inhaled or intranasal
Assay Metric: Cmax (nM)
Supply the numeric figure in nM, leaving out any unit text.

// field: Cmax; key: C[C@H](NC(=O)C(C)(F)F)[C@H](Oc1ccc2c(cnn2-c2ccc(F)cc2)c1)c1ccc2c(c1)OCCO2 ; value = 30

###

Assay: AUC (0 to infinity) in Wistar Han rat lung at 0.1 umol/kg, administered as dry powder inhalation by LC-MS/MS analysis
Type: ADME
Parameters: dose 0.1 umol/kg, route respiratory (INHALATION), time infinity
Settings: inhaled or intranasal
What AUC(0-inf) was measured for each of the following?
Supply the numeric figure in µM·h, leaving out any unit text.

// field: AUC(0-inf); key: C[C@H](NC(=O)C(C)(F)F)[C@H](Oc1ccc2c(cnn2-c2cccc(C(=O)N[C@@H]3CCS(=O)(=O)C3)c2)c1)c1ccc2c(c1)OCCO2 ; value = 5200

// field: AUC(0-inf); key: C[C@H](NC(=O)C(C)(F)F)[C@H](Oc1ccc2c(cnn2-c2cccc(C(=O)NCc3cccnc3)c2)c1)c1ccc2c(c1)OCCO2 ; value = 26

// field: AUC(0-inf); key: C[C@H](NC(=O)C(C)(F)F)[C@H](Oc1ccc2c(cnn2-c2cccc(C(=O)N[C@@H]3CCOC3)c2)c1)c1ccc2c(c1)OCCO2 ; value = 740

###

Test system: Lung
Assay: Drug uptake in Wistar Han rat lung at 0.1 umol/kg, administered as dry powder inhalation after 4 hrs by LC-MS/MS analysis
Type: ADME
Details: in vivo, inhaled_or_intranasal
Assay Metric: Drug uptake (%ID)
Supply the numeric figure in %ID, leaving out any unit text.

Result for C[C@H](NC(=O)C(C)(F)F)[C@H](Oc1ccc2c(cnn2-c2cccc(C(=O)N[C@@H]3CCOC3)c2)c1)c1ccc2c(c1)OCCO2 [VELSECORAT] , tested on Lung, Drug uptake: 73

Result for CCC(=O)O[C@]1(C(=O)SCF)[C@H](C)C[C@H]2[C@@H]3C[C@H](F)C4=CC(=O)C=C[C@]4(C)[C@@]3(F)[C@@H](O)C[C@@]21C [FLUTICASONE PROPIONATE] , tested on Lung, Drug uptake: 43

Result for C[C@H](NC(=O)C(C)(F)F)[C@H](Oc1ccc2c(cnn2-c2cccc(C(=O)NCc3cccnc3)c2)c1)c1ccc2c(c1)OCCO2 , tested on Lung, Drug uptake: 4.1

###

What hepatocyte CLint was measured for each of the following?
Test: Intrinsic clearance in human hepatocytes assessed per million cells
Type: ADME, cell-based, Hepatocyte
Conditions: read-out: CLH
Supply the numeric figure in µL/min/1e6 cells, leaving out any unit text.

// field: hepatocyte CLint; key: C[C@H](NC(=O)C(C)(F)F)[C@H](Oc1ccc2c(cnn2-c2cccc(C(=O)NCc3cccnc3)c2)c1)c1ccc2c(c1)OCOC2 ; value = 21

// field: hepatocyte CLint; key: C[C@H](NC(=O)C(C)(F)F)[C@H](Oc1ccc2c(cnn2-c2cccc(C(=O)N[C@H]3CCS(=O)(=O)C3)c2)c1)c1ccc2c(c1)OCCO2 ; value = 23

// field: hepatocyte CLint; key: C[C@H](NC(=O)C(C)(F)F)[C@H](Oc1ccc2c(cnn2-c2cccc(C(=O)NCc3cccnc3)c2)c1)c1ccc2c(c1)OCCO2 ; value = 21
